System: guinea-pig papillary muscle
protocol-summary: Electrophysiological test: action potential of guinea-pig papillary muscle (microelectrode technique)
measurement-parameters: Cavia porcellus, read-out: BATH CONCENTRATION (Lowest concentration of the compound to induce suppression of action potential), Table 4; racemates and optical isomers
Given measured minimal effective concentration, output 1.0 if it is greater than or equal to 60 µM and 0.0 if not.

Form field: minimal effective concentration at least 60 µM? Entry: c1ccc(CNC23OC4C5C6CC(C7C6C4C72)C53)cc1 (racemic) [Compound 4] 0.0

Form field: minimal effective concentration at least 60 µM? Entry: c1ccc(CNC23OC4C5C6CC(C7C6C4C72)C53)cc1 (single isomer, unassigned) [(-) -4] 0.0

Form field: minimal effective concentration at least 60 µM? Entry: CCCCNC12OC3C4C5CC(C6C5C3C61)C42 (racemic) [Compound 2] 1.0

Form field: minimal effective concentration at least 60 µM? Entry: CCCCCCCCNC12OC3C4C5CC(C6C5C3C61)C42 (racemic) 1.0

Form field: minimal effective concentration at least 60 µM? Entry: CCCCNC12OC3C4C5CC(C6C5C3C61)C42 (single isomer, unassigned) [(-) -2] 1.0
